Below, each entry is listed alongside its reported max response.
Experiment: qHTS assay for small molecule agonists of the antioxidant response element (ARE) signaling pathway measured by Nrf2-dependant transcriptional activity - cell viability counter screen (AID 720653); further: on the % scale 0 is the no-effect control and ±100 the full control effect
Details: ARE-bla HepG2 viability, CellTiter-Glo ATP luminescence, 16 h; hits give low values
Records with an inconclusive call do not appear. Active and inactive are the calls of the source. The call rests on the fitted dose curve; in most records, active means well fitted cell-killing curve with a large enough effect in the repeat runs; inconclusive means weak or mixed curves; inactive means flat fitted curve, though single readings scatter.

- MOLECULE: "CCOC(=O)C1=NN(c2ccc(Cl)cc2Cl)C(C)(C(=O)OCC)C1 (stereo not drawn)"
  max response: "0.425% (inactive)"
- MOLECULE: "O=C=NCCCCCCN=C=O"
  max response: "-0.323% (inactive)"

Would you kindly look at the next entry?
# input Which value of max response has been reported for CCCCCCCCCCCCCO in the records?
# output -9.94% (inactive)

---

Experiment: qHTS for Inhibitors of Plasmodium falciparum (GB4) proliferation (AID 504315);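 further: 0% = DMSO vehicle and -100% = 0.29 µM artemisinin control; nearly all actives have a fitted effect of over 50% in size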
Details: P. falciparum GB4 in erythrocytes, SYBR Green DNA, 72 h; series mostly up to 6.7 µM
Excerpt: Plasmodium falciparum is a virulent malarial parasite that kills 1-2 million people worldwide each year. Malaria not only inflicts tremendous suffering and morbidity on the human population, but has dramatically influenced the course of civilization with profound sociological and economic implications (Shah, S. 2010). […] Because mature erythrocytes lack DNA, only Plasmodium-derived DNA is detected. […]
Inconclusive results are not listed. Active and inactive are the calls of the source. The call rests on the fitted dose curve; in most records, active means well fitted inhibition curve with a large enough effect; inconclusive means small, poorly fitted or top-dose-only effect, or effect the other way; inactive means flat fitted curve, though single readings scatter.
Your answer must be one of the following: active, inactive

Look over these answered cases.
- MOLECULE: "COC(=O)CCCC1=CC2=C(c3ccccc3)C(=O)C(C)(OC(=O)C3CCCC3)C(=O)C2=CN1Cc1ccccc1 (stereo unspecified)"
  CLASS NAME: "inactive"
- MOLECULE: "CC(=O)C1=C(C)N(Cc2ccccc2)C(=O)N[C@H]1c1ccco1"
  CLASS NAME: "inactive"
- MOLECULE: "C[C@@H]1C[C@](C)(C(=O)c2ccc3ccccc3c2)C=C1c1ccc2ccccc2c1"
  CLASS NAME: "inactive"

# input Which outcome was assigned to COC(=O)C1(C(=O)OC)CC(CO)C(=O)[C@@H]1c1ccccc1 (stereo partly specified) in this test?
# output inactive

---

Assay: qHTS assay for small molecule activators of the p53 signaling pathway (AID 651743); further: % of control where 0% means no effect
Conditions: HCT-116 p53RE-bla, beta-lactamase FRET ratio, 16 h; hits give high values
Text: National Center for Advancing Translational Sciences [NCATS] NIH Chemical Genomics Center [NCGC] U.S. Environmental Protection Agency [EPA] National Institutes of Environmental Health Sciences [NIEHS] National Toxicology Program [NTP] Assay Overview: p53, a tumor suppressor protein, is activated following cellular insult, including DNA damage and other cellular stresses. […] The activation of the report gene under culture conditions can be detected by fluorescence intensity. […]
Inconclusive results are not listed.
Below, each entry is listed alongside its reported activation.
The reply should be a number in %, with the unit left off.

- COMPOUND: "CSC(=O)c1cccc2nnsc12"
  activation / %: 1.69
- COMPOUND: "N[C@@H]1[C@@H](O)[C@H](O)[C@@H](CO)O[C@H]1O"
  activation / %: -3.01
- COMPOUND: "CCCCOCCOCCO"
  activation / %: 0.276
- COMPOUND: "CCCCCCCC1CCC(=O)O1 (stereo unspecified)"
  activation / %: -2.71
- COMPOUND: "CCCCCCCC[Si](OCC)(OCC)OCC"
  activation / %: 1.43
- COMPOUND: "Cn1c(=O)[nH]c(=O)n(C2CCCCC2)c1=O"
  activation / %: -1.53
- COMPOUND: "C[Si](C)(C)N[Si](C)(C)C"
  activation / %: 1.4
- COMPOUND: "O=C(Cl)c1ccc(C(=O)Cl)cc1"
  activation / %: -0.615

# input Which value of activation has been reported for c1ccc(B(c2ccccc2)c2ccccc2)cc1 in the records?
# output -0.854

# input Which value of activation has been reported for CCCCCCCCCCCCCCCCCC#N in the records?
# output -6.64

# input Which value of activation has been reported for Nc1cc(Cl)c(O)c(Cl)c1 in the records?
# output -2.82

# input Which value of activation has been reported for CCOC(=O)[C@H](C)Oc1ccc(Oc2nc3ccc(Cl)cc3o2)cc1 in the records?
# output -9.98

# input Which value of activation has been reported for CCCCCCC(C)OC(=O)COc1nc(F)c(Cl)c(N)c1Cl (stereo unspecified) in the records?
# output -6.58

# input Which value of activation has been reported for COc1ccc(OC)c(OC)c1 in the records?
# output -1.46

# input Which value of activation has been reported for CCCCCCCCCCCCCCCCCC(N)=O in the records?
# output 0.913

# input Which value of activation has been reported for C=C(C)C(=O)OCCCCCCCCCCCCCCCC in the records?
# output -3.74
